test: yeast display, Sf9 membrane polyspecificity reagent, FACS + sequencing; frameworks hold sequencing errors
readoutKind: polyreactivity (PSR sort gate)

[[record]]
sequencerecord = "QVQLVESGGGLVQAGGSLRLSCAASGSTFRYNTMGWYRQAPGKEMELVARITSVGSTNYADSVKGRFTISRDNAKNTVYFQMNSLKPEDTAVYYCATTRPIRRTSARYNYWGQGTQVTVSS"
readoutkind = "polyreactivity (PSR sort gate)"
reportedmeasurement = "low polyreactivity"

[[record]]
sequencerecord = "QVQLVESGGGLVQAGGSLRLSCAASGIIFRSNAMGWYRQAPGKERELVAAISWSGSSTYYADSVKGRFTISRDNAKKTVYLQMNSLKPEDTAVYYCAAYDFYGIYWGQGTQVTVSS"
readoutkind = "polyreactivity (PSR sort gate)"
reportedmeasurement = "low polyreactivity"

